Measurement Target: D(2) dopamine receptor (Homo sapiens)
Method: HTS Assay for Allosteric Antagonists of the Human D2 Dopamine Receptor: SAR in Primary Assay.
Run Parameters: HEK293 T-REx D2 cells, calcium flux, dopamine EC80 antagonism; at 41.8 µM (top of the series) unless noted
Results filed as inconclusive are left out. The source made the active and inactive calls. Calls follow the shape of the dose curve; as a rule, active = well fitted inhibition curve with a large enough effect; inconclusive = small, poorly fitted or top-dose-only effect, or another doubt; inactive = no such curve, though single readings can be large or run the other way.
Assay Metric: activity, negative = inhibition

compound="CCN1C(=O)c2ccccc2S(=O)c2ccc(C(=O)NCc3ccc(C)cc3)cc21 (centres undefined)" measurement_target="D(2) dopamine receptor (Homo sapiens)" experimental_value="5.87% [at 4.65 µM]"
compound=CCN1C(=O)c2ccccc2S(=O)(=O)c2ccc(C(=O)NCc3ccc(OC)cc3)cc21 measurement_target="D(2) dopamine receptor (Homo sapiens)" experimental_value=-113%
compound="CCN1C(=O)c2ccccc2S(=O)c2ccc(C(=O)NCc3cc(OC)c(OC)c(OC)c3)cc21 (centres undefined)" measurement_target="D(2) dopamine receptor (Homo sapiens)" experimental_value=23.4%
compound="CCN1C(=O)c2ccccc2S(=O)c2ccc(C(=O)NCc3ccccc3OC)cc21 (centres undefined)" measurement_target="D(2) dopamine receptor (Homo sapiens)" experimental_value="-21.4% (active)"
compound="CN1C(=O)c2ccccc2S(=O)c2ccc(C(=O)NCc3cccnc3)cc21 (centres undefined)" measurement_target="D(2) dopamine receptor (Homo sapiens)" experimental_value="-114% [at 4.65 µM] (active)"
compound="CN(C)CCCNC(=O)c1ccc2c(c1)N(C)C(=O)c1ccccc1S2=O (centres undefined)" measurement_target="D(2) dopamine receptor (Homo sapiens)" experimental_value="-85.7% [at 4.65 µM] (active)"
compound="CCN1C(=O)c2ccccc2S(=O)c2ccc(C(=O)N(C)Cc3ccc(OC)cc3)cc21 (centres undefined)" measurement_target="D(2) dopamine receptor (Homo sapiens)" experimental_value="-112% [at 4.65 µM]"
compound=CCN1C(=O)c2ccccc2[S@@](=O)c2ccc(C(=O)NCc3ccc(OC)cc3)cc21 measurement_target="D(2) dopamine receptor (Homo sapiens)" experimental_value=-112%
compound=COc1ccc(CNC(=O)c2ccc3c(c2)C(=O)c2ccccc2C3=O)cc1 measurement_target="D(2) dopamine receptor (Homo sapiens)" experimental_value=-113%

* * *

Measurement Target: D(2) dopamine receptor (Homo sapiens) (UniProt P14416)
Sequence (P14416 whole entry, looked up): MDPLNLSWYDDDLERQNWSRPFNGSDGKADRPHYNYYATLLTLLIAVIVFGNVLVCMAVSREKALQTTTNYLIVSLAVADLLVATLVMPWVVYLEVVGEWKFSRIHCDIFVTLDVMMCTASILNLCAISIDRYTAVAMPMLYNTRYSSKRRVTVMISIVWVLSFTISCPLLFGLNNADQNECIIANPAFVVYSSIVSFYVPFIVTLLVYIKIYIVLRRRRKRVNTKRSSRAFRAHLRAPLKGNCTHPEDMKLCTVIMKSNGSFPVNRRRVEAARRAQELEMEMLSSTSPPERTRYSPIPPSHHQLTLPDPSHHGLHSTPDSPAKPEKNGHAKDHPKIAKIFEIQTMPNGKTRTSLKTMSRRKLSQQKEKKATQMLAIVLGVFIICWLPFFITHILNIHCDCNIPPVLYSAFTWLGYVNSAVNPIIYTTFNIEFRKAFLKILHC
Method: HTS Assay for Allosteric Antagonists of the Human D2 Dopamine Receptor: SAR in Primary Assay.
Run Parameters: HEK293 T-REx D2 cells, calcium flux, dopamine EC80 antagonism
Inconclusive results are not listed. Active and inactive are the calls of the source. Calls follow the shape of the dose curve; as a rule, active = well fitted inhibition curve with a large enough effect; inconclusive = small, poorly fitted or top-dose-only effect, or another doubt; inactive = no such curve, though single readings can be large or run the other way.
Outcomes: 1 (active), -1 (inactive)

molecule=CCN1C(=O)c2ccccc2[S@](=O)c2ccc(C(=O)N[C@H](C)c3ccc(Br)cc3)cc21 class_name=1
molecule="COc1ccc(CNC(=O)c2ccc3c(c2)N(Cc2ccccc2)C(=O)c2ccccc2S3=O)cc1 (centres undefined)" class_name=1
molecule=CN1C(=O)c2ccccc2[S@](=O)c2ccc(C(=O)NCc3cccnc3)cc21 class_name=1
molecule="COc1ccc(CNC(=O)c2ccc3c(c2)N(C)C(=O)c2ccccc2S3=O)cc1 (centres undefined)" class_name=1
molecule="CCN1C(=O)c2ccccc2S(=O)c2ccc(C(=O)NC(C)c3ccccc3)cc21 (centres undefined)" class_name=1
molecule="CCN1C(=O)c2ccccc2S(=O)c2ccc(C(=O)NCc3ccc(SC)cc3)cc21 (centres undefined)" class_name=1
molecule=CN1C(=O)c2ccccc2[S@@](=O)c2ccc(C(=O)NCCc3cccs3)cc21 class_name=1
molecule="CN1C(=O)c2ccccc2S(=O)c2ccc(C(=O)NCc3ccc(Cl)cc3)cc21 (centres undefined)" class_name=1
molecule="CN1C(=O)c2ccccc2S(=O)c2ccc(C(=O)NCCc3cccs3)cc21 (centres undefined)" class_name=1
molecule="CCN1C(=O)c2ccccc2S(=O)c2ccc(C(=O)NCc3ccc(OC)cc3)cc21 (centres undefined)" class_name=1
molecule="CN1C(=O)c2ccccc2S(=O)c2ccc(C(=O)NCc3ccc(Br)cc3)cc21 (centres undefined)" class_name=1
molecule="CCN1C(=O)c2ccccc2S(=O)c2ccc(C(=O)NCc3ccc(C#N)cc3)cc21 (centres undefined)" class_name=1
molecule="CN1C(=O)c2ccccc2S(=O)c2ccc(C(=O)NCc3cccc(Cl)c3)cc21 (centres undefined)" class_name=1
molecule="CCN1C(=O)c2ccccc2S(=O)c2ccc(C(=O)NCc3ccc(C(F)(F)F)cc3)cc21 (centres undefined)" class_name=1
molecule=CCN1C(=O)c2ccccc2Sc2ccc(C(=O)NCc3ccc(OC)cc3)cc21 class_name=1
molecule="CCN1C(=O)c2ccccc2S(=O)c2ccc(C(=O)NCc3ccc(S(C)(=O)=O)cc3)cc21 (centres undefined)" class_name=1
molecule=CCN1C(=O)c2ccccc2[S@](=O)c2ccc(C(=O)NCc3ccc(F)cc3)cc21 class_name=1
molecule="CN1C(=O)c2ccccc2S(=O)c2ccc(C(=O)NCc3ccccc3)cc21 (centres undefined)" class_name=1
molecule="COc1ccc(CNC(=O)c2ccc3c(c2)NC(=O)c2ccccc2S3=O)cc1 (centres undefined)" class_name=1
molecule="CCCN1C(=O)c2ccccc2S(=O)c2ccc(C(=O)NCc3ccc(OC)cc3)cc21 (centres undefined)" class_name=1
molecule=CN1C(=O)c2ccccc2[S@](=O)c2ccc(C(=O)NCc3ccc(Br)cc3)cc21 class_name=1
molecule="CCN1C(=O)c2ccccc2S(=O)c2ccc(C(=O)Nc3ccc(OC)cc3)cc21 (centres undefined)" class_name=1
molecule="CCN1C(=O)c2ccccc2S(=O)c2ccc(C(=O)OCc3ccc(OC)cc3)cc21 (centres undefined)" class_name=-1
molecule=CCN1C(=O)c2ccccc2[S@](=O)c2ccc(C(=O)NCc3ccc(C#N)cc3)cc21 class_name=1
